B1: Azoarcus group I ribozyme (parent)
chain: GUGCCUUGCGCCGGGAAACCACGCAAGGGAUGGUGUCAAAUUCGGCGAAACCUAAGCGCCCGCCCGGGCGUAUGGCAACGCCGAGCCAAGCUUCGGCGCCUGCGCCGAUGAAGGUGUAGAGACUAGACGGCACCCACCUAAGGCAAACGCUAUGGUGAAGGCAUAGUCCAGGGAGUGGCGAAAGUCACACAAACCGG

Variants of: B1
Experiment: reverse-splicing fitness (ratio to wild type); higher = more active; in vitro selection; Mg2+ level not given
Could you please report measured reverse-splicing fitness for the items listed next?
# answer = number (no unit)

Data request: Please give the documented reverse-splicing fitness of C82A A111U A120C A145C C150A C169A U176C
Data returned: 0.0164

Data request: Please give the documented reverse-splicing fitness of A111C A120C A145U U176C
Data returned: 0.215

Data request: Please give the documented reverse-splicing fitness of C82G A111G A120U A145G C150A U176G
Data returned: 0.00391

Data request: Please give the documented reverse-splicing fitness of C82U A111U A145G C150A U176C
Data returned: 0.0426

Data request: Please give the documented reverse-splicing fitness of `C82A`
Data returned: 0.658

Data request: Please give the documented reverse-splicing fitness of C82G A111U A120G A145U C150U U176G
Data returned: 0.00663

Data request: Please give the documented reverse-splicing fitness of C82A A111G A120U A145U C150U C169G U176G
Data returned: 0.00208

Data request: Please give the documented reverse-splicing fitness of C82U A111C A120G C150U C169G U176A
Data returned: 0.0121

Data request: Please give the documented reverse-splicing fitness of A120G A145G C150U C169A U176A
Data returned: 0.0867

Data request: Please give the documented reverse-splicing fitness of C82G A120G A145G C150U U176A
Data returned: 0.0107

Data request: Please give the documented reverse-splicing fitness of C82U A111G A120G A145U C150U C169A U176A
Data returned: 0.0119

Data request: Please give the documented reverse-splicing fitness of C82U A111U A120G A145G C150U C169U U176A
Data returned: 0.0194

Data request: Please give the documented reverse-splicing fitness of A111U A120U A145G C150G C169G U176A
Data returned: 0.00683

Data request: Please give the documented reverse-splicing fitness of C82G A111G A120U A145C U176A
Data returned: 0.0131

Data request: Please give the documented reverse-splicing fitness of A111G A120C A145U C150A C169U U176G
Data returned: 0.00505

Data request: Please give the documented reverse-splicing fitness of C82G A111G A120U C150U C169U U176C
Data returned: 0.0051

Data request: Please give the documented reverse-splicing fitness of C82U A111U A120U C150U U176A
Data returned: 0.00668

Data request: Please give the documented reverse-splicing fitness of C82G A111G A145G C150G C169A U176A
Data returned: 0.015

Data request: Please give the documented reverse-splicing fitness of C82A A111C A120G A145G C169G U176G
Data returned: 0.00491

Data request: Please give the documented reverse-splicing fitness of C82U A120G A145U C150G C169A U176C
Data returned: 0.00949

Data request: Please give the documented reverse-splicing fitness of A111U A120U A145G C169G U176C
Data returned: 0.00918

Data request: Please give the documented reverse-splicing fitness of C150U C169A U176G
Data returned: 0.00623

Data credit: the RNAGym collection of RNA variant scans (doi:10.1093/molbev/msab373)
